Tested on: HCV 1b-BB7 subgenomic replicon
Assay: microbe, parasite or virus in culture
Type: cell-based, HCV genotype 1b
Conditions: Hepatitis C virus, stable replicon, strain 1b BB7, 5% FBS + 40% human plasma; read-out: 1b BB7 5% FBS + 40% Human Plasma EC50
Each item that follows carries a reported EC50.
quantity: EC50 (nM)

> print(dat)
                                   molecule  data.value
1  CCCCCCN(c1cc2oc(-c3ccc(F)cc3)c(-c3ncc[nH]3)c2cc1C1CC1)S(C)(=O)=O        1070
2  COc1ccc(CN(c2cc3oc(-c4ccc(F)cc4)c(C4=NOC(C)N4)c3cc2C2CC2)S(C)(=O)=O)cc1 (stereo not drawn)        1500
3  CS(=O)(=O)CCCCN(c1cc2oc(-c3ccc(F)cc3)c(C3=NOCN3)c2cc1C1CC1)S(C)(=O)=O         688
